The reported measurements were obtained from patent US9440957B2.

- Measured on: EGFR(L858R/T790M) (Homo sapiens, UniProt P00533, L858R/T790M)
- Construct: purchased from Carna (GST-a.a. 669-1210)
- Sequence (P00533 669-1210 T790M/L858R): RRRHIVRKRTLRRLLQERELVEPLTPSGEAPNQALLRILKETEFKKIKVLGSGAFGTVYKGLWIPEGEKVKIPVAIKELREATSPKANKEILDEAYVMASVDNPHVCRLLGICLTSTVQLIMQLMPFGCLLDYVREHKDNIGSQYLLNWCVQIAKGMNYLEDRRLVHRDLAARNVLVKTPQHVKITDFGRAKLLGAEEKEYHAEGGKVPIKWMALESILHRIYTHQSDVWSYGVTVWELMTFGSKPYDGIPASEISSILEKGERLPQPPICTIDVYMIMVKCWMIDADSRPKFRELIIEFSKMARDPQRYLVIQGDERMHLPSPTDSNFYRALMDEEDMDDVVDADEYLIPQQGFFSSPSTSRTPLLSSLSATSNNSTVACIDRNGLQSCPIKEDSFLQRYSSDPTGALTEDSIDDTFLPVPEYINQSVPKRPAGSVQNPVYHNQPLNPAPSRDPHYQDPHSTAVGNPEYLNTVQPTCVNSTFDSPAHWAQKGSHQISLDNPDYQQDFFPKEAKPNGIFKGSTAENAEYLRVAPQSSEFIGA
- Test: EGFR biochemical assay (HTRF), IC50 determinations
- Assay conditions: EGFR (L858R/T790M) with no pre-incubation; read-out: IC50 (μM) Column A
Quantity: IC50 (µM)

Below are worked cases with known answers.
C=CC(=O)N1CCCC[C@@H](n2c(NC(=O)c3ccnnc3)nc3ccc(OC)c(Cl)c32)C1 : 0.006
C=CC(=O)N1CCCC(n2c(NC(=O)c3cccc(C(F)(F)F)c3)nc3c2CN(C(=O)OC)CC3)C1 (stereo not shown) : 0.66

I = COc1cc(C(=O)Nc2nc3cccc(C)c3n2[C@@H]2CCCCN(C(=O)/C=C/CN(C)C)C2)ccn1
II = COc1cc2nc(NC(=O)c3cc(C)nc(C)c3)n([C@@H]3CCCCN(C(=O)/C=C/CN(C)C)C3)c2cc1Cl
Prompt: Larger number for IC50: I , or II ? In your reply, give the label of the chosen option.
Response: II
(II: 0.23 µM, I: 0.002 µM)
